The values you see were collected from patent US10421760B2.

target: purified recombinant human JAK1 protein (Homo sapiens (Human)); experiment: JAK1 kinase-inhibiting activity (mobility shift, LabChip EZ Reader II); assay type: biochemical; conditions: ATP 75 μM, 25° C., 120 minutes
Sequence (P23458 whole entry): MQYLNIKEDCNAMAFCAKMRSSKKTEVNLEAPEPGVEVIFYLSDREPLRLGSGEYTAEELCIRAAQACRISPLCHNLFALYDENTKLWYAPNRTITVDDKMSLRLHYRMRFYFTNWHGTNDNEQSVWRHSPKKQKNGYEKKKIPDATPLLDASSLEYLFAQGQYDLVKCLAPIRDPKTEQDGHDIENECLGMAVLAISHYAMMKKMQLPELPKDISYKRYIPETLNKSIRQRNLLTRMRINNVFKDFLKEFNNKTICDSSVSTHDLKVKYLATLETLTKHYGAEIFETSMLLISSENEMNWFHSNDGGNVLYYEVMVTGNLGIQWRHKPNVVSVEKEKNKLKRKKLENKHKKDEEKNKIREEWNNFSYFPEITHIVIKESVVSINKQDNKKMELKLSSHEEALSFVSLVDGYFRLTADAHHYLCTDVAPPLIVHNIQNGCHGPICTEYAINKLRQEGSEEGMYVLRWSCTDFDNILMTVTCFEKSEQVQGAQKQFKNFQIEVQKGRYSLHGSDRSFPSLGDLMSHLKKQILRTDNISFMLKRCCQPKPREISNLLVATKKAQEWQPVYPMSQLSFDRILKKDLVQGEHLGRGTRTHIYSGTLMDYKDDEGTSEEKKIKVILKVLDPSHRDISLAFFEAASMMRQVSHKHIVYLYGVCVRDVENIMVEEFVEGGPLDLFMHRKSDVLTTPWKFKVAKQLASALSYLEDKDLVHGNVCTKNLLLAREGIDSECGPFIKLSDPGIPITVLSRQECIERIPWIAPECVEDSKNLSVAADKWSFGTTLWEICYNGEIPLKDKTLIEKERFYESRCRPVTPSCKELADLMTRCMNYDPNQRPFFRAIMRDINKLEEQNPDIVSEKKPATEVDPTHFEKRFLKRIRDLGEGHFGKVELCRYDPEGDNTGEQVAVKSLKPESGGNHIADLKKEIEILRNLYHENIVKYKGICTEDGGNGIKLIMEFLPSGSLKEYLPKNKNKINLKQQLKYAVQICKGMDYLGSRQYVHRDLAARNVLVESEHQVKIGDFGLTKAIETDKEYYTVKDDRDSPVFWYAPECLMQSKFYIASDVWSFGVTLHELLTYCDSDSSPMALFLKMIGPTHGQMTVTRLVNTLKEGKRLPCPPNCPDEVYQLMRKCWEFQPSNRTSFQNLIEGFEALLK

molecule	relation-sign	IC50 (nM)
C/C=C/C(=O)NC1CCC=C(c2ncnc3[nH]cc(-c4ccccc4)c23)C1 (stereo not shown) [Comparative Example 2, reference compound]	=	730
C=CC(=O)NC1CCC=C(c2ncnc3[nH]cc(-c4ccco4)c23)C1 (stereo not shown)	=	720
C=CC(=O)Nc1cccc(-c2ncnc3[nH]cc(-c4ccccc4)c23)c1 [Comparative Example 12, reference compound]	>	1000
C=CC(=O)N[C@H]1CCC=C(c2ncnc3[nH]cc(-c4ccco4)c23)C1	=	440
C=C(C)C(=O)NC1CCC=C(c2ncnc3[nH]cc(-c4ccccc4)c23)C1 (stereo not shown) [Comparative Example 1, reference compound]	=	880
C=CC(=O)N[C@H]1CCC[C@H](c2ncnc3[nH]cc(-c4ccco4)c23)C1 [Comparative Example 11(b), reference compound]	>	10000
C=CC(=O)NC1CCC=C(c2ncnc3[nH]cc(-c4cccs4)c23)C1 (stereo not shown)	=	900

* * *

biological target: purified recombinant human JAK3 protein (Homo sapiens (Human), UniProt P52333); test: JAK3 kinase-inhibiting activity (mobility shift, LabChip EZ Reader II); conditions: ATP 5 μM, 25° C., 80 minutes
Sequence (P52333 whole entry): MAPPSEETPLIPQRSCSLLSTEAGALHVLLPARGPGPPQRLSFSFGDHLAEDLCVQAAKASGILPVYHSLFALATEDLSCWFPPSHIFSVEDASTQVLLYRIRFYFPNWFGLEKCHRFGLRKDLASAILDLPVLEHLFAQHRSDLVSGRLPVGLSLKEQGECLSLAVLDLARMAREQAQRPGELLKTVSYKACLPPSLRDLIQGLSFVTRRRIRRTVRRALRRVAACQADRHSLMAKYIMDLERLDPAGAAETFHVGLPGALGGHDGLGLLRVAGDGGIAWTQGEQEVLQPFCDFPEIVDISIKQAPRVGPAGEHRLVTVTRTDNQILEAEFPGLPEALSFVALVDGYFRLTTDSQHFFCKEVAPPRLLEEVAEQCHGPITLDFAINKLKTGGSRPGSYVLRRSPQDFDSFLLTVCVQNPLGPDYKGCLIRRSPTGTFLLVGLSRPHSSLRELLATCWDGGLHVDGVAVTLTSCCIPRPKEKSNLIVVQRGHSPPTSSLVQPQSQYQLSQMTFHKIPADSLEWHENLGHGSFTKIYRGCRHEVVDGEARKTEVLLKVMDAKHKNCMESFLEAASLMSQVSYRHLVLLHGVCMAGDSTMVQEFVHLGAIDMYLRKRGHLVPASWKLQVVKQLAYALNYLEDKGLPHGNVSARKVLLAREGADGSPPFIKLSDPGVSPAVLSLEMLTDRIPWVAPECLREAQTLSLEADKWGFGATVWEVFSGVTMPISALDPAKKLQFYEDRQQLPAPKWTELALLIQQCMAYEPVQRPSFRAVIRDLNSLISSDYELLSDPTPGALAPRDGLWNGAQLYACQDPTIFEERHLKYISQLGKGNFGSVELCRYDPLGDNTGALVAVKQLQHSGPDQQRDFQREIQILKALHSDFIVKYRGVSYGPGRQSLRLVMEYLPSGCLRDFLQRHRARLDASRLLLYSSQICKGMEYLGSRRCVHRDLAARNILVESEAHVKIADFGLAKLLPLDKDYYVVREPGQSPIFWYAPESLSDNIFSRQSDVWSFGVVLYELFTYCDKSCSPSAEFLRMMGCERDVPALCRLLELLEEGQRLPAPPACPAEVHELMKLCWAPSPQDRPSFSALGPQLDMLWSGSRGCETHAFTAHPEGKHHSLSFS
parameter: IC50 (nM)

compound	parameter	units-of-measure	relation-sign	recorded-number
C=CC(=O)Nc1cccc(-c2ncnc3[nH]cc(-c4ccccc4)c23)c1 [Comparative Example 12, reference compound]	IC50	nM	=	0.09
C=CC(=O)NC1CCC=C(c2ncnc3[nH]cc(-c4ccccc4)c23)C1 (centres unmarked)	IC50	nM	<	0.3
C=CC(=O)NC1CCC=C(c2ncnc3[nH]cc(-c4ncccn4)c23)C1 (centres unmarked) [Comparative Example 8, reference compound]	IC50	nM	=	21.4
C1=C(c2ncnc3[nH]ccc23)CCCC1 [Comparative Example 10, reference compound]	IC50	nM	=	125
C=CC(=O)NC1CC=C(c2ncnc3[nH]cc(-c4ccccc4)c23)C1 (centres unmarked)	IC50	nM	<	0.3

* * *

Molecular target: purified recombinant human JAK3 protein (Homo sapiens (Human))
Test: JAK3 kinase-inhibiting activity (mobility shift, LabChip EZ Reader II)
Settings: ATP 5 μM, 25° C., 80 minutes
Method: 3) Measurement of JAK3 Kinase-Inhibiting Activity The activity of the compound of the present invention to inhibit the activity of JAK3 kinase was measured. Among materials for the measurement of this inhibiting activity, a substrate peptide and a kinase protein were acquired as follows. As such a substrate peptide, a substrate peptide for QSS Assist JAK3-MSA assay kit (Carna Biosciences, Inc.) was purchased. […]
# Lookup of reported IC50 keyed by entry

compound	relation-sign	IC50 [nM]
C=CC(=O)NC1CC=C(c2ncnc3[nH]cc(-c4ccco4)c23)C1 (stereo not shown)	<	0.3
C=CC(=O)NC1CCC=C(c2ncnc3[nH]cc(-c4ccsc4)c23)C1 (stereo not shown)	<	0.3
C=CC(=O)NC1C=C(c2ncnc3[nH]cc(-c4ccoc4)c23)CCC1 (stereo not shown)	=	0.77
C=CC(=O)NC1CCC=C(c2ncnc3[nH]cc(-c4ccco4)c23)C1 (stereo not shown)	<	0.3
C=CC(=O)NC1C=C(c2ncnc3[nH]cc(-c4ccccc4)c23)CC1 (stereo not shown)	=	0.68
C=CC(=O)N[C@H]1CCC[C@@H](c2ncnc3[nH]cc(-c4ccco4)c23)C1 [Comparative Example 11(a), reference compound]	=	21
C=CC(=O)NC1C=C(c2ncnc3[nH]cc(-c4ccco4)c23)CCC1 (stereo not shown)	=	0.33
C=CC(=O)NC1CCC=C(c2ncnc3[nH]cc(-c4ccoc4)c23)C1 (stereo not shown)	=	0.42
C=CC(=O)N[C@H]1CCC[C@H](c2ncnc3[nH]cc(-c4ccco4)c23)C1 [Comparative Example 11(b), reference compound]	=	19
C=CC(=O)N[C@H]1CCC=C(c2ncnc3[nH]cc(-c4ccco4)c23)C1	<	0.3
C=CC(=O)NC1CCC=C(c2ncnc3[nH]cc(-c4cccs4)c23)C1 (stereo not shown)	<	0.3
C/C=C/C(=O)NC1CCC=C(c2ncnc3[nH]cc(-c4ccccc4)c23)C1 (stereo not shown) [Comparative Example 2, reference compound]	=	27
C=C(C)C(=O)NC1CCC=C(c2ncnc3[nH]cc(-c4ccccc4)c23)C1 (stereo not shown) [Comparative Example 1, reference compound]	=	44
C=CC(=O)NC1C=C(c2ncnc3[nH]cc(-c4ccccc4)c23)CCC1 (stereo not shown)	=	0.35
C=CC(=O)NC1C=C(c2ncnc3[nH]cc(-c4ccsc4)c23)CCC1 (stereo not shown)	<	0.3
C=CC(=O)NC1C=C(c2ncnc3[nH]cc(-c4cccs4)c23)CCC1 (stereo not shown)	<	0.3
